Numbers sourced from ChEMBL document CHEMBL4513216.

Assay Details: Toxicity liver stage against HepG2, at 10uM
Type: cell-based
Design: test concentration 10 uM, cell line HepG2-A16-CD81EGFP
Experimental Conditions: human, HepG2-A16-CD81EGFP cells; read-out: INHIBITION
The entries below are paired with their reported cytotoxicity at 10 µM.
Give a bare numeral; the unit % is implied.

Solved cases below.
Molecule	cytotoxicity at 10 µM / %
C=C(C)CNc1ccc(C(=O)N(CC)Cc2nccn2C)cn1	-9.36
CCOCCC(=O)N1Cc2cnc(-c3ccccc3)nc2C1	-6.88
C=C(C)CN1CCC(Nc2nc(C)ns2)CC1	-8.39

For Cc1ccc(C(=O)NS(=O)(=O)c2ccccc2F)c(=O)[nH]1 , what is its reported cytotoxicity at 10 µM?
-5.53

For CNc1ncc(CN(C)C(=O)c2cccc(Cn3cccn3)c2)cn1 , what is its reported cytotoxicity at 10 µM?
1.32

For Cc1nc(C(=O)N2CCCC(c3ccc4sc(N)nc4n3)C2)co1 (configuration not stated) , what is its reported cytotoxicity at 10 µM?
-11.9

For Cc1nc(COC[C@H]2CC[C@H]3[C@H](CCN3C(N)=O)O2)cs1 , what is its reported cytotoxicity at 10 µM?
-81.2
